Listed here are molecules together with their documented MIC.
Tested on: Pseudomonas aeruginosa clinical isolates
Method description: microbe, parasite or virus in culture
Test conditions: Pseudomonas aeruginosa, read-out: MIC, PA(non-mucoid)
Quick note: give the figure in µM, leave out the unit.

Use the examples below as a reference point.
INSERT INTO assay_data (molecule, u, number) VALUES
  ('NC[C@H]1O[C@H](O[C@H]2[C@H](O)[C@@H](O[C@H]3O[C@H](CO)[C@@H](O)[C@H](N)[C@H]3O)[C@H](N)C[C@@H]2N)[C@H](N)C[C@@H]1O [TOB, tobramycin]', 'µM', 5.9),
  ('C[C@@H](O)[C@H]1C(=O)N2C(C(=O)O)=C(S[C@@H]3CN[C@H](C(=O)N(C)C)C3)[C@H](C)[C@H]12 [MEM, meropenem]', 'µM', 4);

In the following, a different molecule is considered.
Item under review: CO/N=C(\C(=O)N[C@@H]1C(=O)N2C(C(=O)O)=C(CSc3nc(=O)c(=O)[nH]n3C)CS[C@H]12)c1csc(N)n1 [CRO, ceftriaxone] . Reported MIC?
89
